Entries and their AC50 values follow.
# Target Or System: Beta-1 adrenergic receptor (Homo sapiens, UniProt P08588); also: assay procedure not described here
# Sequence (P08588 whole entry): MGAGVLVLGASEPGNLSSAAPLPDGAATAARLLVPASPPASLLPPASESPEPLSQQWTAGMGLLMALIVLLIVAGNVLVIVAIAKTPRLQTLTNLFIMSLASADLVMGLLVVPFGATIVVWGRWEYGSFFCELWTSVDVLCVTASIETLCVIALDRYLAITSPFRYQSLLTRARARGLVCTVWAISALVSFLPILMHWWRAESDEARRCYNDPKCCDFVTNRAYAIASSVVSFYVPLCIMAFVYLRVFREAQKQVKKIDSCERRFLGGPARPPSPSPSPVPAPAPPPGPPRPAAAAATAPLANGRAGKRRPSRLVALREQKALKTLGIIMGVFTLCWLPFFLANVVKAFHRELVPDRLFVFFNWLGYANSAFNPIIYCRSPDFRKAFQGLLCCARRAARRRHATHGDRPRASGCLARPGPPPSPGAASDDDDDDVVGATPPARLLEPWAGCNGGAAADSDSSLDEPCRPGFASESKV
# Assay type: functional

Compound: C=CC1=C(C(=O)O)N2C(=O)[C@@H](NC(=O)/C(=N\OCC(=O)O)c3csc(N)n3)[C@H]2SC1
AC50: > 30 µM
--
Compound: CCCN(CC)C(CC)C(=O)Nc1c(C)cccc1C (stereo not drawn)
AC50: > 30 µM
--
Compound: CN1CCN(c2c(F)cc3c(=O)c(C(=O)O)cn4c3c2SCC4)CC1
AC50: > 30 µM
--
Compound: CC(NCCc1ccc(O)cc1)C(O)c1ccc(O)cc1 (stereo not drawn)
AC50: 17 µM
--
Compound: O=C(CCCN1CCC(n2c(O)nc3ccccc32)CC1)c1ccc(F)cc1
AC50: 8.5 µM
--
Compound: CC1(C)O[C@@H]2[C@@H](CO[C@@]3(COS(N)(=O)=O)OC(C)(C)O[C@@H]23)O1 [TOPIRAMATE]
AC50: > 10 µM
--
Compound: CCCC(C)(COC(N)=O)COC(=O)NC(C)C (stereo not drawn)
AC50: > 10 µM
--
Compound: CCN(CC)CC(=O)Oc1ccc(NC(C)=O)cc1
AC50: > 30 µM
--
Compound: CNCC[C@@H](Oc1ccccc1C)c1ccccc1
AC50: > 30 µM
--
Compound: N=C(N)c1ccc2cc(OC(=O)c3ccc(N=C(N)N)cc3)ccc2c1
AC50: > 30 µM
--
Compound: [H]/N=C(\N/C(=N/[H])NCCCCCCNC(=N)NC(=N)Nc1ccc(Cl)cc1)Nc1ccc(Cl)cc1
AC50: 1.4 µM
--
Compound: CC(C)C[C@H](CN)CC(=O)O
AC50: > 30 µM
--
Compound: O=C(CCCN1CCC2(CC1)C(=O)NCN2c1ccccc1)c1ccc(F)cc1
AC50: 2.8 µM
--
Compound: COC1=C(OC)C(=O)C(CCCCCCCCCCO)=C(C)C1=O
AC50: > 10 µM
--
Compound: Cc1ccc2c(-c3ccccc3)nc(=O)n(C(C)C)c2c1
AC50: > 30 µM
--
Compound: C#C[C@]1(O)CC[C@H]2[C@@H]3CCC4=CC(=O)CCC4=C3C=C[C@@]21CC
AC50: > 30 µM
--
Compound: CC1(C)C(C=C(Cl)Cl)C1C(=O)OCc1cccc(Oc2ccccc2)c1 (stereo not drawn)
AC50: > 10 µM
--
Compound: [H]/N=C(/N)N[C@H]1[C@H](O)[C@@H](O)[C@H](O[C@@H]2O[C@@H](C)[C@](O)(C=O)[C@H]2O[C@@H]2O[C@@H](CO)[C@H](O)[C@@H](O)[C@@H]2NC)[C@@H](N/C(N)=N\[H])[C@@H]1O
AC50: > 30 µM
